assayTarget: Adenosine receptor A2a (Homo sapiens, UniProt P29274)
Sequence (P29274 whole entry): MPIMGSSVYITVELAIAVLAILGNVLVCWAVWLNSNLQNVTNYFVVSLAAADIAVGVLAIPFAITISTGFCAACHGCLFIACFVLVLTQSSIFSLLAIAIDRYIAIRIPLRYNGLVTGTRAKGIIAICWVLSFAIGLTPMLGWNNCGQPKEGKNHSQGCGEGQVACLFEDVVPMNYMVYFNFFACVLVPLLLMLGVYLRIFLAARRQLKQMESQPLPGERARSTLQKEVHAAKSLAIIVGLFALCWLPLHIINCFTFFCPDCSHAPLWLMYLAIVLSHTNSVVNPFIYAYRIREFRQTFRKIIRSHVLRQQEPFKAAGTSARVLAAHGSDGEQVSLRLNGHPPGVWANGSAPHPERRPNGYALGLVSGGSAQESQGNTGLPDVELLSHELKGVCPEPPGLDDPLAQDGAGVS
runDescription: Displacement of [3H]2-[p-(2-carboxyethyl)phenylethylamino]-5'-N-ethylcarboxamido-adenosine from human A2A adenosine receptor expressed in HEK293 cell membranes after 60 mins
Returns: string. Value is MET if measured Ki is below 90 nM, and NOT MET if it is greater than or equal to it.

* CCNC(=O)[C@H]1O[C@@H](n2cnc3c(N)nc(NCCc4ccc(CCC(=O)N[C@H](Cc5c[nH]c6ccccc56)C(=O)OC)cc4)nc32)[C@H](O)[C@@H]1O | NOT MET
* CCNC(=O)[C@H]1O[C@@H](n2cnc3c(N)nc(NCCc4ccc(CCC(=O)N[C@@H](Cc5ccccc5)C(=O)OC)cc4)nc32)[C@H](O)[C@@H]1O | NOT MET
* CCNC(=O)[C@H]1O[C@@H](n2cnc3c(N)nc(NCCc4ccc(CCC(=O)N[C@H](Cc5c[nH]c6ccccc56)C(=O)O)cc4)nc32)[C@H](O)[C@@H]1O | NOT MET
* CCNC(=O)[C@H]1O[C@@H](n2cnc3c(N)nc(NCCc4ccc(CCC(=O)N[C@H](Cc5ccccc5)C(=O)OC)cc4)nc32)[C@H](O)[C@@H]1O | MET
* CCNC(=O)[C@H]1O[C@@H](n2cnc3c(N)nc(NCCc4ccc(CCC(=O)N[C@@H](Cc5ccccc5)C(=O)O)cc4)nc32)[C@H](O)[C@@H]1O | MET
* CCNC(=O)[C@H]1O[C@@H](n2cnc3c(N)nc(NCCc4ccc(CCC(=O)N[C@@H](CC(=O)O)C(=O)O)cc4)nc32)[C@H](O)[C@@H]1O | NOT MET
* CCNC(=O)[C@H]1O[C@@H](n2cnc3c(N)nc(NCCc4ccc(CCC(=O)N[C@@H](Cc5c[nH]c6ccccc56)C(=O)OC)cc4)nc32)[C@H](O)[C@@H]1O | MET
* CCNC(=O)[C@H]1O[C@@H](n2cnc3c(N)nc(NCCc4ccc(CCC(=O)N[C@H](CCCN=C(N)N)C(=O)O)cc4)nc32)[C@H](O)[C@@H]1O | MET
* CCNC(=O)[C@H]1O[C@@H](n2cnc3c(N)nc(NCCc4ccc(CCC(=O)N[C@H](Cc5ccccc5)C(=O)O)cc4)nc32)[C@H](O)[C@@H]1O | MET
* CCNC(=O)[C@H]1O[C@@H](n2cnc3c(N)nc(NCCc4ccc(CCC(=O)N[C@H](Cc5c[nH]cn5)C(=O)O)cc4)nc32)[C@H](O)[C@@H]1O | MET
* CCNC(=O)[C@H]1O[C@@H](n2cnc3c(N)nc(NCCc4ccc(CCC(=O)N[C@@H](Cc5cnc[nH]5)C(=O)O)cc4)nc32)[C@H](O)[C@@H]1O | NOT MET
* CCNC(=O)[C@H]1O[C@@H](n2cnc3c(N)nc(NCCc4ccc(CCC(=O)N[C@H](CC(=O)O)C(=O)O)cc4)nc32)[C@H](O)[C@@H]1O | NOT MET
* CCNC(=O)[C@H]1O[C@@H](n2cnc3c(N)nc(NCCc4ccc(CCC(=O)N[C@@H](Cc5c[nH]c6ccccc56)C(=O)O)cc4)nc32)[C@H](O)[C@@H]1O | MET
* CCNC(=O)[C@H]1O[C@@H](n2cnc3c(N)nc(NCCc4ccc(CCC(=O)N[C@@H](CCCN=C(N)N)C(=O)O)cc4)nc32)[C@H](O)[C@@H]1O | NOT MET
